assay: The compound was tested for the inhibition of Protein phosphatase-1 (PP1); conditions: read-out: Ki app
Each record here notes measured pKi.
Please treat pKi as minus the base-10 logarithm of the molar concentration.

O=C(O)[C@@H]1[C@H](C(=O)O)[C@H]2CC[C@@H]1O2 [ENDOTHALL]    5.40

Task: Return reported pKi; argument: O=C1OC(=O)[C@@H]2[C@H]1[C@@H]1O[C@H]2C[C@@H]1COC(=O)[C@@H]1C[C@H]1c1ccccc1
Result: 5.40

----------
The following molecules are listed with their measured Ki values.
assay: Inhibition of Protein phosphatase 2B; set-up: species or system Homo sapiens; settings: read-out: Ki app
Entry rule: numbers only, all in nM.

Task: Name the reported Ki value associated with the molecule O=C(CCCCc1ccccc1)OC[C@H]1C[C@@H]2O[C@H]1[C@H]1C(=O)OC(=O)[C@H]12
Result: 2300

Task: Requested field: Ki. Item: O=C(CCCc1ccccc1)OC[C@H]1C[C@@H]2O[C@H]1[C@H]1C(=O)OC(=O)[C@H]12
Result: 1200

Task: Reported Ki, molecule O=C(Cc1ccccc1)OC[C@H]1C[C@@H]2O[C@H]1[C@H]1C(=O)OC(=O)[C@H]12 : ____
Result: 7400

Task: Need Ki, item O=C(CCCC1CCCCC1)OC[C@H]1C[C@@H]2O[C@H]1[C@H]1C(=O)OC(=O)[C@H]12
Result: 1000
